Please provide measured growth inhibition for the entries that follow.
Method summary: NCI Yeast Anticancer Drug Screen. Data for the mec2-1 strain (AID 157)
Measurement conditions: S. cerevisiae mec2-1 strain, at 3.7 µM, active compounds read high
The panel holds about 79,000 compounds, 15% with a hit somewhere; the sample as a whole holds those more often.
Expressed in %, but write only the number.

Reported growth inhibition for O=C1C(=C2CCCC2)CCC1CN1CCCCC1 (stereo not drawn) : what is it?
-12

Another: `CN(C)CCNCCCNc1c2ccccc2nc2cccc([N+](=O)[O-])c12`
18

Another: `O=C1C=C(Br)C(=O)c2ccccc21`
37

Another: `CC1(C)OC(=O)C(=Cc2ccc([N+](=O)[O-])s2)C(=O)O1`
-5

Another: `CCOc1ccc(N)c(S)c1`
4

Another: COc1ccc(C(C)c2cc3c(cc2OCC(C)=O)OCO3)cc1 (stereo not drawn)
-1

Another: COc1ccc2c(c1)CCCC(Br)C2=O (stereo not drawn)
41

Another: COc1ccc2c3c1OC(C)C31CC(=O)CCC1CC2 (stereo not drawn)
-2

Another: BrC1C2CCC3OC3C12 (stereo not drawn)
5

Another: `C=CCNC1=C2C[C@@H](C)C[C@H](OC)[C@H](O)[C@@H](C)/C=C(\C)[C@H](OC(N)=O)[C@@H](OC)/C=C\C=C(/C)C(=O)NC(=CC1=O)C2=O`
-59

Another: CCOC(=O)CC1(C)/C(=N\Nc2ccc([N+](=O)[O-])cc2[N+](=O)[O-])CCC2C1CCC1(C)C(C(C)CCCC(C)C)CCC21 (stereo not drawn)
-4

Another: `Cc1oc2ccccc2c(=O)c1Cn1nnc2ccccc21`
-3

Another: O=C1C2=C(c3ccccc31)C(c1ccccc1)N1C(=O)CSC1=N2 (stereo not drawn)
10

Another: `CCc1c(Cl)c(C)c(Cl)c(O)c1Cl`
-12

Another: C=C(C(=O)OC)N1C(=O)CC(C)C1=O (stereo not drawn)
12

Another: `O=C1c2ccccc2C(=O)c2sc(Nc3ccccc3Cl)nc21`
32

Another: `CCOC(=O)/C(=C\c1ccc(F)cc1)C(C)=O`
-3

Another: `O=c1cccccc1[O-].O=c1cccccc1[O-].O=c1cccccc1[O-].[Eu+3]`
2

Another: `C[N+](C)([O-])CCCNc1c2ccccc2nc2cccc([N+](=O)[O-])c12`
54

Another: `COc1ccc2nc3cccc([N+](=O)[O-])c3c(NCCNCCN(C)C)c2c1`
-1

Another: `O=C(Oc1ccc([N+](=O)[O-])cc1)c1ccc([N+](=O)[O-])cc1`
2

Another: `CC(C)OC(=O)NNc1cccc(Cl)c1`
11

Another: `Cc1cc(C)c2[s+]snc2c1`
-5

Another: `Cc1cc(OCc2nc(N)nc(N)c2-c2ccc(Cl)c(Cl)c2)ccc1[N+](=O)[O-]`
3

Another: CCN1CCC(O)(c2ccc(Oc3ccc(C)cc3)cc2)C(C(=O)c2ccc(Oc3ccc(C)cc3)cc2)C1 (stereo not drawn)
-1

Another: `Cc1c2c(nc3ccccc13)C(=O)c1cccnc1C2=O`
-10

Another: `O=C(C(Cl)=C(N1CCCCC1)N1CCCCC1)C(Cl)Cl`
-2

Another: `CC(C)(Br)C(=O)/C=C/c1ccccc1`
7

Another: `C[n+]1c(/C=C/c2ccc(/C=N/NC(=O)c3ccc(C(=O)N/N=C/c4ccc(/C=C/c5cn6ccccc6[n+]5C)cc4)cc3)cc2)cn2ccccc21`
99

Another: `CC(C)=CCc1c2c(c(O)c3c(=O)c(-c4ccc(O)c(O)c4)coc13)C=CC(C)(C)O2`
-93

Another: `COC(=O)c1cnc(Cl)c([N+](=O)[O-])c1`
10

Another: `Cc1ccccc1NC(=O)c1c(C)oc2c1C(=O)c1ccccc1C2=O`
-31

Another: `Nc1ccc(S(=O)(=O)Nc2nc3c(c(=O)[nH]2)CCCC3)cc1`
4

Another: C[C@H](CCC1=NC(C)(C)CO1)C1CCC2[C@@H]3C(O)C[C@@H]4CC(O)CC[C@]4(C)C3CC[C@@]21C (stereo partly drawn)
-3

Another: O=S(=O)(c1cccc(C(F)(F)F)c1)N1c2ccccc2-n2cccc2C1c1cccnc1 (stereo not drawn)
-32

Another: `COc1ccccc1NC(=O)c1ccc(Cl)cc1`
-5

Another: `Cc1cccc2c(NCCCN(C)C)c3c([N+](=O)[O-])ccc(C)c3nc12`
61

Another: CCCCCCCCCCCCCCCCCCNc1nc(=O)n(C2CC(OP(=O)(O)OCC3OC(n4cc(F)c(=O)[nH]c4=O)CC3O)C(CO)O2)cc1F (stereo not drawn)
15

Another: `Nc1cc(Cl)ccc1Nc1ccccc1`
-6

Another: `Cc1ccc(S(=O)(=O)Nc2cccc3cccnc23)cc1`
18

Another: `CN(C)N=Nc1ccc(N(C)C)cc1`
3

Another: O=C1C(CCSc2ccccc2)C(=O)N(c2ccccc2)C1c1ccccc1 (stereo not drawn)
13

Another: O=C(O)c1cc2c(cc1S(=O)(=O)O)C1C(C3C2C2(Cl)C(Cl)=C(Cl)C3(Cl)C2(Cl)Cl)C2(Cl)C(Cl)=C(Cl)C1(Cl)C2(Cl)Cl (stereo not drawn)
-2
